SYSTEM_NAME: Phospholipase D1 (Homo sapiens, UniProt Q13393)
Sequence (Q13393 whole entry): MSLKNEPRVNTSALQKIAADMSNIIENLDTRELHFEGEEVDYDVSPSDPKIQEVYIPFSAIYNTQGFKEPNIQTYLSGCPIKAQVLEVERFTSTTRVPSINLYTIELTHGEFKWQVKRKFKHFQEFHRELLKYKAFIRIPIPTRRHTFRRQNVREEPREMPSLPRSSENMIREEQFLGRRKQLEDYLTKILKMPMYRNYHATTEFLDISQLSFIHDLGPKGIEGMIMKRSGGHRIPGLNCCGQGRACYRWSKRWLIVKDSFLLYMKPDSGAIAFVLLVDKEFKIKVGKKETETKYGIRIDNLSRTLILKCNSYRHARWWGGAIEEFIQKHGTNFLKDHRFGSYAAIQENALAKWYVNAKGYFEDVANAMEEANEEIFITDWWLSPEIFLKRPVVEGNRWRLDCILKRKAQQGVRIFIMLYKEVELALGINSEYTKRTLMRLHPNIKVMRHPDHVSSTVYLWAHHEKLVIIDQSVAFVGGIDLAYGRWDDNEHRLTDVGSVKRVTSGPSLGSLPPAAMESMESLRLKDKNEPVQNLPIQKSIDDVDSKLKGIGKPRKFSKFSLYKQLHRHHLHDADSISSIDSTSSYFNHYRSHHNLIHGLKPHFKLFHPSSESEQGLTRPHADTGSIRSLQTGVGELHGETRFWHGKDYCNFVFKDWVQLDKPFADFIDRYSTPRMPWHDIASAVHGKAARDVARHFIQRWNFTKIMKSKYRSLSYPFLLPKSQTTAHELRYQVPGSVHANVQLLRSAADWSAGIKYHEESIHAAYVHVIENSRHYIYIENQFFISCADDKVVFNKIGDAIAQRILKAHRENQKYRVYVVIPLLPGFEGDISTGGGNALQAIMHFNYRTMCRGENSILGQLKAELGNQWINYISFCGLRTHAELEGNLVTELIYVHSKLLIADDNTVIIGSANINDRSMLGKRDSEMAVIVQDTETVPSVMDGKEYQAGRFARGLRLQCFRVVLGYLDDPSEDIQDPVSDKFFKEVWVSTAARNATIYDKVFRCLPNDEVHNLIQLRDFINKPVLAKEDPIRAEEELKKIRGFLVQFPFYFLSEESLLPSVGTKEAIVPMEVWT
EXPERIMENTAL_PROTOCOL: Inhibition of PLD1 (unknown origin)

MOLECULE: CC(=O)c1ccc2[nH]c(C(=O)Nc3cc(C(F)(F)F)cc(C(F)(F)F)c3)cc2c1
IC50: 325 nM

====

Test system: SW-620
EXPERIMENTAL_PROTOCOL: Antiproliferative activity in human SW620 cells measured after 12 to 24 hrs by MTT assay
Assay type: functional, cell-based
pIC50: −log10 of the molar value.
RESULT_TYPE: pIC50

MOLECULE: C=C[C@@]12COC(=O)C(=C)[C@@H]1[C@H]1OC(=O)C(=C)[C@@H]1[C@@H](OC(=O)C(=C)CO)C2
EXPERIMENTAL_VALUE: 3.45

====

System: SW48
EXPERIMENTAL_PROTOCOL: Cytotoxicity against human SW48 cells measured after 72 hrs
Assay type: functional, cell-based
CONDITION_DETAILS: SW48, 72 h

COMPOUND: O=C(O)CCCCC1CCSS1 (stereo unspecified)
IC50, µM: 266

====

Test system: SW480
EXPERIMENTAL_PROTOCOL: Antiproliferative activity against human SW480 cells
Format: functional, cell-based
CONDITION_DETAILS: Homo sapiens, SW480

MOLECULE: COc1ccc(-c2cc(=O)c3c(O)c(OC)c(O)c(OC)c3o2)cc1
IC50 [µM]: 5

The measurements presented in this section are drawn from ChEMBL document CHEMBL5512605.
